assay-summary: protein stability index of a GFP-peptide fusion (yeast GPS) (PSI 1-4); higher = more stable; sorted into four equal gates, so the index is relative within each strain
test-conditions: doa10∆
Give protein stability index for every item shown.
Give bare numbers.

Take a look at these entries with their results.
{"columns": ["sequence-chain", "protein stability index"],
 "data": [
  ["GIRAPKGALMYGPPGTG [RPT5]", 2.86],
  ["LRVDEVQGKNLLTNFHG [RPS1A]", 3.29],
  ["ANIFRIHSKSMSVERGI [RPT1]", 3.16]
]}

Batch of 5 sequences: report protein stability index for each.
1. SWNLTGTILSSAGDDGK [YGL100W/SEH1]
2. DLSWSKQTDTGITHFRA [PRP8]
3. PEFAGYSKAAEPHAVSL [ASC1]
4. DSSSQCIVDFTNPKLKS [YMR129W/POM152]
5. SFQKNSLHNTEKIMENK [AAR2]

-- reply
[1.37, 2.85, 2.51, 2.2, 3.08]

Batch of 6 sequences: report protein stability index for each.
1. REQHIDTICQSIQEQIQ [SNF5]
2. KLIEKKSAYANTEKDYK [SMC2]
3. NAARKAEASGEAADEAD [RPS9A]
4. SEEPTDFGFDLDIEKEA [MCD1]
5. LAGMDVEDALDKDSTKE [FAS2]
6. QNIETRQLANLIPFIVK [NUT1]

-- reply
[3.12, 2.71, 3.29, 2.77, 3.43, 1.61]

Batch of 2 sequences: report protein stability index for each.
1. QMDQQLQYTALTGSPNN [ARP7]
2. EALIEFIYDTEKNGGLG [FAS2]

-- reply
[2.91, 2.52]

###

assay-summary: protein stability index of a GFP-peptide fusion (yeast GPS) (PSI 1-4); higher = more stable; sorted into four equal gates, so the index is relative within each strain
test-conditions: doa10∆
Give protein stability index for every item shown.

{"columns": ["sequence-chain", "protein stability index"],
 "data": [
  ["EDLKNFIFQIIEITNSN [SRB8]", 1.96],
  ["EGTPINNVYFAAGALFV [RPN14]", 2.2],
  ["KSMGRKCFDDIEPHIFD [YCG1]", 3.15],
  ["VVIEKRRKKILNEIELD [GRR1]", 2.03],
  ["IIQPFLDNSKMDYHFIF [RGR1]", 2.99]
]}

Batch of 2 sequences: report protein stability index for each.
1. FVLLEIEPVTKVSSLKM [YCS4]
2. PKSSPLKKNNYNSFPHS [SIR4]

-- reply
1. 2.34
2. 2.79

Batch of 5 sequences: report protein stability index for each.
1. IVALTNAKDKERLQLLE [SMC3]
2. QAAGGLSIRLTNQLKSL [RPN8]
3. VVWYQRLTMGNVFTPEI [RRI2]
4. ADKIVDEFPELKEPVED [NUT2]
5. LMKKACYVGLLTAIPIL [SNU114]

-- reply
1. 3.22
2. 2.75
3. 2.03
4. 3.71
5. 1.55

Batch of 7 sequences: report protein stability index for each.
1. VTHMDQIFVRGSQIKFI [SMD3]
2. DKQYRTAVATLLKELSK [SMC3]
3. SAIDVLDPLTKDPVDFV [RPN2]
4. GVAHLLNRFNFQNTNTR [QCR2]
5. GLRAVRKNRYVILQSDL [RPT3]
6. MQENDKINQERLERRIN [CSI1]
7. GIFLHGKIPTLKISLIQ [PRP8]

-- reply
[2.55, 2.49, 3.21, 2.69, 3.05, 1.62, 2.26]

Batch of 5 sequences: report protein stability index for each.
1. IDGCVKIGDLGLARKFH [SSN3]
2. LFYFDSSFRPCPLSQQF [BRR2]
3. QFNATINPESREIVMPA [ITC1]
4. TVYSSEQYIQELDKRED [SMC3]
5. VAFLDNDLGKFIPNKQL [RPN7]

-- reply
1. 2.98
2. 2.47
3. 1.87
4. 2.76
5. 3.34

Batch of 2 sequences: report protein stability index for each.
1. SIEVQSLPEFFTNRIPS [SWI3]
2. RYIWRSLKDLSSLRNQE [RPN3]

-- reply
[2.64, 2.77]

Batch of 3 sequences: report protein stability index for each.
1. KLRDHEPDLESQISKAE [SMC4]
2. ICQIISSTITGDVVLAA [RPL5]
3. NNKILEKCKEINVETVY [BRR2]

-- reply
1: 2.07; 2: 2.84; 3: 1.73

Batch of 3 sequences: report protein stability index for each.
1. TEKEEDAELMADEEEEI [ISW2]
2. ESGSTPISISNAPTFNP [YAR002W/NUP60]
3. SSVTSDSMKYTISSLFV [RPC82]

-- reply
1: 3.5; 2: 2.25; 3: 1.93

Batch of 5 sequences: report protein stability index for each.
1. IASMSTVRASSLQDLIY [SMC2]
2. ITVRYWLNGKMDSKGKI [RGR1]
3. LKESYSQKHNGRILKWL [CDC53]
4. LTIVTCKQFPKLSCIQL [SRB8]
5. LLHETNDSFKGLITNKM [PRP8]

-- reply
1.92
3.27
2.01
1.99
3

###

assay-summary: protein stability index of a GFP-peptide fusion (yeast GPS) (PSI 1-4); higher = more stable; sorted into four equal gates, so the index is relative within each strain
test-conditions: pdr5∆
property: protein stability index
One number for each entry.

{"columns": ["sequence-chain", "property", "reported-measurement"],
 "data": [
  ["RFVIWTEAAFTKLDQVW [RPL4A]", "protein stability index", 2.39]
]}

Batch of 7 sequences: report protein stability index for each.
1. KHWGGGILGNKAQAKMD [RPL8A]
2. TGYPDEPPAGVALPPGS [CYT1]
3. SAIDVLDPLTKDPVDFV [RPN2]
4. LAQTLKLWRKIARLYSC [RRI2]
5. DSIPYPQIVKLFDISRE [ECM29]
6. DSSSQCIVDFTNPKLKS [YMR129W/POM152]
7. GAGIERELARIKKYASV [RPL3]

-- reply
1. 3.47
2. 2.92
3. 3.29
4. 1.21
5. 1.3
6. 2.43
7. 3.46

###

assay-summary: protein stability index of a GFP-peptide fusion (yeast GPS) (PSI 1-4); higher = more stable; sorted into four equal gates, so the index is relative within each strain
test-conditions: ubr1∆
property: protein stability index
Numbers only.

{"columns": ["sequence-chain", "protein stability index"],
 "data": [
  ["GSQILSGVMDKSVLGDG [RPO31]", 3.55],
  ["LWNQWLKLNTSLPSKLT [SRP68]", 1.83],
  ["ITHRDLHYDKDYNLRIY [SSN8]", 2.18],
  ["YQRPMQVQGQQQAQSFV [SSN3]", 2.63],
  ["FNVVDVGVDQLSIELEG [YJL039C/NUP192]", 3.37],
  ["RYADAGNIDTKNNILGS [RRP43]", 3.04]
]}

Batch of 8 sequences: report protein stability index for each.
1. SNTSTSKMLDAASSQVS [SNF12]
2. TPLFPIDRNSTILYLNV [IRR1]
3. DVKISNDFFDNGDNLYG [RPN4]
4. EGLSAQIAFDLVSSASQ [RPN2]
5. KAERVEDQKVVDKALIA [RPL6A]
6. SESVGAFLSFLAYRNYW [YJL039C/NUP192]
7. YGVSFFTIQSFVSSLSN [BRR2]
8. TKEELESDGRMFIEEPT [SRP54]

-- reply
2.83
2.69
1.69
2.62
3.5
1.84
1.42
2.71

Batch of 7 sequences: report protein stability index for each.
1. AAVIMRCKIYFFYLRIS [PCI8]
2. SLRRQVKKLEIQQHARY [RPL43A]
3. SEEPTDFGFDLDIEKEA [MCD1]
4. LMYATDWQMMTSPVTGA [CSL4]
5. VSVLLISKDCSAFACKT [BRR2]
6. RNSKLLNTKSIQIDEET [MCD1]
7. TNVLNFIKLQKIDIIEL [FAS1]

-- reply
[1.09, 3.29, 3.24, 2.79, 2.17, 3.33, 2.05]

Batch of 2 sequences: report protein stability index for each.
1. VFLKHSLSIKLATLHYQ [RPN6]
2. VESPDKNVRFRVLQLLA [YCG1]

-- reply
1: 3.08; 2: 1.65

###

assay-summary: protein stability index of a GFP-peptide fusion (yeast GPS) (PSI 1-4); higher = more stable; sorted into four equal gates, so the index is relative within each strain
test-conditions: san1∆
Give protein stability index for every item shown.
Give bare numbers.

Batch of 4 sequences: report protein stability index for each.
1. TQQPGTNSHYNNTNTDN [SNF2]
2. SSPTLATGFGAHMANPL [PRE4]
3. LISGKAGVLNGTLEYGT [RET1]
4. QHIYPSSTPGVANYSAM [GAL11]

-- reply
3.21
2.98
3.02
3.01

Batch of 2 sequences: report protein stability index for each.
1. TCVTCHWNLPGERIFNK [SIR2]
2. AITHMIDALGTEFSKND [SCL1]

-- reply
1: 2.82; 2: 2.7

Batch of 6 sequences: report protein stability index for each.
1. KIALREYINNCKKNTKK [POP4]
2. VESPDKNVRFRVLQLLA [YCG1]
3. VQVSKAGGLPMDALTLM [RRP45]
4. SAPAPAAAAPAPVAAAA [FAS2]
5. QFASPVRWIETQDVFLK [FAS2]
6. QRTATLCLEKLMCLSSK [YCS4]

-- reply
1: 3.01; 2: 1.18; 3: 1.1; 4: 2.49; 5: 2.25; 6: 2.49

Batch of 3 sequences: report protein stability index for each.
1. AKRAQFRKKRKFELGRQ [RPS8A]
2. NLMGNRNNHNSNTSTSK [SNF12]
3. QFISSRQFEVKQLQLAM [POP1]

-- reply
[3.31, 2.92, 2.1]
